# target_system: alpha-synuclein fibrils, P37840
# assay_name: SPR, captured mAb
# assay_conditions: remark: other sources report otherwise
Quick reference: kon of the listed items.
Write the answer as a number in M⁻¹ s⁻¹, unit excluded.

Some solved entries appear below for comparison.
>  <binder>
ACI-7079-2507B3-Ab1 (antibody, V domains shown) VH: EVQLVESGGGLVQPKGSLKVSCAASGFTFKTYAMHWVRQAPGKGLEWVARIRSENSNFAKYYADSVKDRFTISRDDSQSMLYLQMHTLKTEDTAIYYCVRGYNGSSLDYWGQGTTLTVSS VL: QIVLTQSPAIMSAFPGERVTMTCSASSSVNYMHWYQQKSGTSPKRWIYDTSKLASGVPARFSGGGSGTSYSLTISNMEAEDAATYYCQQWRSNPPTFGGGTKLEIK

>  <recorded_endpoint>
kon

>  <observed>
19100

$$$$
>  <binder>
ACI-7067-1108B11-Ab2 (antibody, V domains shown) VH: EVQLVESGGGLVQPKGSLKLSCAASGFTFNTYAMHWVRQAPGKGLEWVARIRSKGSNYATNYADSVKDRFTISRDDSQSMLYLQMNNLKTEDTAMYYCVRGHGSSYFSYWGQGTLVTVSA VL: QIVLTQSPAIMSASPGERITMTCSANSSVTYMHWYQQKSGTSPKRWIYDTSNLASGVPARFSGSGSGTSYSLTISSMEAEDAATYYCQQWKSHPPTFGAGTKLELK

>  <recorded_endpoint>
kon

>  <observed>
251000

$$$$
>  <binder>
ACI-7079-2602G4-Ab4 (antibody, V domains shown) VH: EVQLVESGGGLVQPKGSLKLSCAASGFTFKTYAMHWVRQAPGKGLEWVARIRSKGSDYATYYADSVKDRFTISRDDSQSMLYLQMNNLKTEDTAMYFCVRGGADSWFAYWGQGTLVTVST VL: QIVLTQSPAIMSASPGERITMTCTASSSVSYMHWYQQKSGTSPKRWIYDTSKLASGVPARFSGSGSGASYTLTISSMEAEDAATYYCQQWNRNPPTFGGGTQLAIK

>  <recorded_endpoint>
kon

>  <observed>
12400

$$$$
>  <binder>
ACI-7079-2603C1-Ab3 (antibody, V domains shown) VH: QVQLQQPGADLVKPGASVKLSCKASGYTFTSYWMQWTKQRPGQGLEWIGEIDPSDSYANYNQKFKGKATLTVDKYSSTAYMQLNSLTSEDSAVYYCALYDGPSYWGQGTLVTVS VL: ENVLTQSPAIMSASPGEKVTMTCSAGSSVSYMHWFQQKSSTSPKLWIYDTSKLPSGVPGRFSGSGSGNSYSLTISSMEAEDVATYYCFQGSGYPYTFGGGTKLEIK

>  <recorded_endpoint>
kon

>  <observed>
1.28e+09

$$$$

Kindly note the recorded kon for ACI-7088-4301H3-Ab2 (antibody, V domains shown) VH: EVQLQQSGPELVKPGASVKISCKASGYTFADYFMNWVKQSHGKSLEWIGDINPNNGGTTYNQKFKGKATLTVDKSSNTAYMELRSLTSEDSAVYYCARGRNYAMDYWGQGTSVTVSS VL: DIVMSQSPSSLAVSAGEKVTMSCKSSQSLLNSRTRKNYLAWYQQKPGQSPKLLIYSASTRESGVPDRFTGSGFGTDFTLTISSVQAEDLAVYYCKQSYDLWTFGGGTKLEIK , which is 10400

meta.source: patent US20250340623A1
